The measurements presented in this section are drawn from patent US20190033318A1.

study.target: T1, 2α PASB (HIF-2α PASB domain, 240-350) (UniProt Q99814 240-350, labelled with NT-647-NHS dye in MST; 15N (and 13C 15N) labelled in NMR)
T1 construct: range 240-350; also called PAS B domain of HIF-2α; not shown: His6 tag of vector pET28, then Met
T1 sequence (Q99814 240-350): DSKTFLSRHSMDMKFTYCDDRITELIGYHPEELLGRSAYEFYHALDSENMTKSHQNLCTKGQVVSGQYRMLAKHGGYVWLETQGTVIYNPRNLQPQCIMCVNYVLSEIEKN
experiment: MST, peptide titrated into fluorescently labelled 2α PASB
Provide the recorded pKd for the entries that follow.
Units for pKd: none; it is -log10 of a concentration expressed in mol/L.

Name the recorded pKd for CKLIIF (cyclic peptide (first amino acid joined to the last)) [cyclo-CKLIIF (SEQ ID NO 2)] .
5.34

Name the recorded pKd for CRVIIF (cyclic peptide (cyclo-, first amino acid joined to the last), also called Compound C) [cyclo-CRVIIF (SEQ ID NO 4)] .
3.88

Name the recorded pKd for CRLLIF (cyclic peptide (cyclo-, first amino acid joined to the last), One of the 4 cyclic peptide hits of the SICLOPPS screen; made by solid phase synthesis; also called CRLLIX where X = F) [cyclo-CRLLIF (SEQ ID NO 3)] .
4.22
